- System: isolated rat aorta
- Experiment summary: Test A: activity against contractions induced by low K⁺ concentrations (20 mM K⁺) in the isolated rat aorta
- Format: cell-based
- Experimental setup: concentration reducing the 20 mM K⁺-induced contraction by 90%; rat thoracic aorta strips denuded of endothelium; read-out: Activity Test A EC₉₀
Outcome measure: EC90 (nM)

>  <Compound>
CNC(=S)C1(c2cccnc2)CCCC/C1=N\OC (racemic) [Compound G]

>  <Test target>
isolated rat aorta

>  <EC90 (nM)>
300

$$$$
>  <Compound>
CCNC(=S)C1(c2cccnc2)CCCCC1=O (racemic) [T]

>  <Test target>
isolated rat aorta

>  <EC90 (nM)>
300

$$$$
>  <Compound>
CNC(=S)C1(c2cnc3ccccc3c2)CCCCC1=O (racemic) [Compound B]

>  <Test target>
isolated rat aorta

>  <EC90 (nM)>
70

$$$$
>  <Compound>
CNC(=S)C1(c2ccc(Cl)nc2)CCCCC1=O (racemic) [Compound R]

>  <Test target>
isolated rat aorta

>  <EC90 (nM)>
240

$$$$

[1] CNC(=S)C1(c2cccnc2)CCCC/C1=N\OCc1ccccc1 (racemic) [Compound H]
[2] CNC(=S)[C@]1(c2cnc3ccccc3c2)CCCC/C1=N\N1CCC[C@H]1COC [Compound J]
[3] CNC(=S)C1(c2cccnc2)CCCCC1=O (racemic) [Compound A]
query: List by increasing EC90. Arrange the labels as the request states and list them.
result: 1, 2, 3

Measured values drawn from patent EP0321274A1 for this set.
